The measurements presented in this section are drawn from PubChem BioAssay AID624331.

TEST_PROTOCOL: qHTS assay for re-activators of p53 using a Luc reporter: Hit Validation with no p53 Expressed
CONDITION_CONTEXT: p53-null cells, luciferase reporter counter-screen; series mostly up to 46.1 µM
Records with an inconclusive call do not appear. Active and inactive are the calls of the source. Calls follow the shape of the dose curve; as a rule, active = well fitted activation curve with a large enough effect; inconclusive = small, poorly fitted or top-dose-only effect; inactive = no such curve, though single readings can be large or run the other way.
Please answer using one outcome listed in yes (1) for active, no (0) for inactive

Could you kindly confirm the outcome this assay logged for CN(C)/C=N/c1cnc(C(=O)c2ccc(Cl)cc2)n1C ?
no (0)

Another compound to look at: COc1cc(C(=O)N/N=C(\c2ccccc2)c2ccccn2)cc(OC)c1OC
no (0)

Similarly, O=C(CSc1nnnn1C1CCCCC1)NCCc1ccccc1 ?
no (0)

Similarly, CC1(C)CC(=O)CC(=O)/C1=N\Nc1c(Cl)cc(Cl)cc1Cl ?
no (0)

Next compound: Clc1ccc(Nc2nc(-c3cccs3)cs2)nc1
no (0)

# iterate: Fc1ccccc1OCCSc1nnnn1-c1ccccc1
no (0)

Also need COc1ccc(NC(=O)c2ccccc2)cc1 , thanks.
no (0)

Same again, this time with Cc1cc(NC(=O)c2ccc3nccnc3c2)ccc1Br
no (0)

Cc1ccc(C)c(OCC(O)CN2C(C)CCCC2C)c1 (stereo not given) , same question.
no (0)

# repeat for CC(C)(C)c1cc(-n2ccnc2)n2ncc(-c3ccc(Cl)cc3)c2n1
no (0)

And then COc1cccc(-c2cn3nc4c(nc3n2)CCCC4)c1 , what is it?
no (0)

Same question, CCOc1ccc2c(c1)C(=NNC(=O)c1ccncc1)c1cc(OCC)ccc1-2 this time
no (0)

Same for Cc1cc(N2CCCCC2)n2ncc(-c3ccc(Cl)cc3)c2n1
no (0)

Same read-out for Nc1c(C(=O)CSc2ccccn2)c(=O)[nH]c(=O)n1C1CC1 ?
no (0)

Request: COC(=O)c1ccc(-c2nc(-c3cccs3)no2)cc1
no (0)

Now consider C#CCn1c(=NC(=O)c2cccs2)sc2cccc(OCC)c21 and answer again.
no (0)

Field entry: Cc1ccc(OCC(=O)Nc2ccc(Cl)cc2)c([N+](=O)[O-])n1
no (0)
